Values were extracted from patent US20250197387A1.

Biological target: BCL-XL (Homo sapiens, UniProt Q07817)
Construct: endogenous in cells; host or cells: MOLT-4
Sequence (Q07817 whole entry): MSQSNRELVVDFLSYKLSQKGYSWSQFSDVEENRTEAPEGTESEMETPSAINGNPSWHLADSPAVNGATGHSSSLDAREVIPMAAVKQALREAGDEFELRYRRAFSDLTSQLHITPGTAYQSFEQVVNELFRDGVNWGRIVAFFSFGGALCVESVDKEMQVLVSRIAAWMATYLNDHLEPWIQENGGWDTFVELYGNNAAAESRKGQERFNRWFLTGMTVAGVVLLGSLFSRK
Experiment: Bcl-xL ELISA degradation in MOLT-4 cells, 6 h
Assay type: cell-based
Conditions: read-out: Bcl-xL ELISA in MOLT-4 degradation 6 h: Mean external-Abs DC50
We begin with a simple list: items and their reported DC50.

Some molecules with recorded DC50:
C#Cc1ccc(CNC(=O)[C@@H]2C[C@@H](O)CN2C(=O)[C@@H](NC(=O)CCN(C)CCS(=O)(=O)NC(=O)c2nc(N(C)c3cc(C)c(Nc4nc5ccccc5s4)nn3)ccc2-c2cnn(CC34CC5CC(CC(C5)C3)C4)c2C)C(C)(C)C)cc1    10 to 100 nM
Cc1ncsc1-c1ccc(CNC(=O)[C@@H]2C[C@@H](O)CN2C(=O)[C@@H](NC(=O)COc2ccc(S(=O)(=O)NC(=O)c3nc(N4CCc5cccc(C(=O)Nc6nc7ccccc7s6)c5C4)ccc3-c3cnn(CC4CCCCC4)c3C)cc2)C(C)(C)C)cc1    10 to 100 nM
Cc1cc(N(C)c2ccc(-c3cnn(CC45CC6CC(CC(C6)C4)C5)c3C)c(C(=O)NS(=O)(=O)CCCCCc3ccc4c(c3)n(C)c(=O)n4C3CCC(=O)NC3=O)n2)nnc1Nc1nc2ccccc2s1 (centres unmarked)    < 10 nM
Cc1ncsc1-c1ccc([C@H](C)NC(=O)[C@@H]2C[C@@H](O)CN2C(=O)[C@@H](NC(=O)CCCCc2ccc(NC(=O)c3nc(N4CCc5cccc(C(=O)Nc6nc7ccccc7s6)c5C4)ccc3-c3cnn(CC4CCCCC4)c3C)cc2)C(C)(C)C)cc1    500 to 1000 nM
Cc1ncsc1-c1ccc([C@H](C)NC(=O)[C@@H]2C[C@@H](O)CN2C(=O)[C@@H](NC(=O)N2CC(Cc3ccc(S(=O)(=O)NC(=O)c4nc(N5CCc6cccc(C(=O)Nc7nc8ccccc8s7)c6C5)ccc4-c4cnn(CC5CCCCC5)c4C)cc3)C2)C(C)(C)C)cc1    10 to 100 nM

Task: Please report the recorded DC50 for `Cc1cc(N(C)c2ccc(-c3cnn(CC45CC6CC(CC(C6)C4)C5)c3C)c(C(=O)NS(=O)(=O)CC3CCN(CC(=O)N[C@H](C(=O)N4C[C@H](O)C[C@H]4C(=O)N[C@@H](C)c4ccc(-c5scnc5C)cc4)C(C)(C)C)CC3)n2)nnc1Nc1nc2cccnc2s1` .
Result: 100 to 500 nM

Task: What DC50 value was documented for this molecule, `Cc1ncsc1-c1ccc([C@H](C)NC(=O)[C@@H]2C[C@@H](O)CN2C(=O)[C@@H](c2cc(OC3CN(CCCS(=O)(=O)NC(=O)c4nc(N5CCc6cccc(C(=O)Nc7nc8ccccc8s7)c6C5)ccc4-c4cnn(CC5CCCCC5)c4C)C3)no2)C(C)C)cc1` ?
Result: 10 to 100 nM

Task: For the molecule `Cc1ncsc1-c1ccc(CNC(=O)[C@@H]2C[C@@H](O)CN2C(=O)[C@@H](NC(=O)C2CN(CCCS(=O)(=O)NC(=O)c3nc(N4CCc5cccc(C(=O)Nc6nc7ccccc7s6)c5C4)ccc3-c3cnn(CC4CCCCC4)c3C)C2)C(C)(C)C)cc1` , what DC50 is on record?
Result: 10 to 100 nM

###

Target: BCL-XL (Homo sapiens)
Construct: endogenous in cells; host or cells: MOLT-4
Test: BCL-XL degradation assay, western blot in MOLT-4 cells, 16 h
Assay type: cell-based
Details: western blot, MOLT-4 cells, 16 h; read-out: Bcl-xL WB in MOLT-4 degradation 16 h: Average Dmax %
reportedMetric: Dmax

Guide cases for Dmax, answers given:
Cc1ncsc1-c1ccc([C@H](C)NC(=O)[C@@H]2C[C@@H](O)CN2C(=O)[C@@H](NC(=O)N2CC3(CN(CCCS(=O)(=O)NC(=O)c4nc(N5CCc6cccc(C(=O)Nc7nc8ccccc8s7)c6C5)ccc4-c4cnn(CC5CCCCC5)c4C)C3)C2)C(C)(C)C)cc1 [I-151]    < 50%
Cc1ncsc1-c1ccc([C@H](C)NC(=O)[C@@H]2C[C@@H](O)CN2C(=O)[C@@H](NC(=O)CCCCCCCS(=O)(=O)NC(=O)c2nc(N3CCc4cccc(C(=O)Nc5nc6cccnc6s5)c4C3)ccc2-c2cnn(CC34CC5CC(CC(C5)C3)C4)c2C)C(C)(C)C)cc1 [I-141]    > 75%
Cc1ncsc1-c1ccc([C@H](C)NC(=O)[C@@H]2C[C@@H](O)CN2C(=O)[C@@H](NC(=O)CCCCCCCC(=O)N(C)CCCc2cccc(F)c2OCCCc2sc(N3CCc4cccc(C(=O)Nc5nc6ccccc6s5)c4C3)nc2C(=O)O)C(C)(C)C)cc1 [I-11]    > 75%

Task: GET /values?readout=Dmax&item= Cc1ncsc1-c1ccc([C@H](C)NC(=O)[C@@H]2C[C@@H](O)CN2C(=O)[C@@H](NC(=O)CCCC(=O)N2CCN(CC[C@H](CSc3ccccc3)Nc3ccc(S(=O)(=O)NC(=O)c4ccc(N5CCN(CC6=C(c7ccc(Cl)cc7)CCC(C)(C)C6)CC5)cc4)cc3S(=O)(=O)C(F)(F)F)CC2)C(C)(C)C)cc1 [I-86]
Result: 50 to 75%
